For each of the compounds below, state its IC50.
# System: fibroblast
# assay.name: Cytotoxicity on human cells, fibroblast
# Type: cell-based
# settings: exposed 24 h and 48 h, 0.1 to 25 μM

Provide value of IC50 for this record tested with fibroblast: OCCNc1nc(NCc2ccccc2)c2ncc(Nc3ccc4ncccc4c3)cc2n1 [Compound 90]
1.5 µM

Each of the following entries comes with a recorded value; kindly state IC50 for each.
1. CC(=O)c1ccc(Nc2cnc3c(NCc4ccccc4)nc(NCCO)nc3c2)cc1 [Compound 86]
2. Oc1ccc(-c2ncc3ncc(Nc4ncccn4)cc3n2)cc1 [Compound 52]

5 µM
2 µM

====

Consider the following compounds; for each one, report its melting point.

Report melting point for "CC(=O)c1ccc(Nc2cnc3c(NCc4ccccc4)nc(NCCO)nc3c2)cc1" please.
125 to 126 °C

Query "OCc1cccc(-c2cnc3cnc(-c4ccc(O)cc4)nc3c2)c1" next
232 °C

Now this one: "COc1ccc(Nc2cnc3c(NCc4ccccc4)nc(NCCO)nc3c2)cc1OC"
149 to 150 °C

Input "Oc1ccc(-c2ncc3ncc(-c4cccnc4)cc3n2)cc1"
> 268 °C

Follow-up item: "N#Cc1ccc(Nc2cnc3cnc(-c4ccc(O)cc4)nc3c2)nc1"
> 268 °C

Give measured melting point for every item shown.
1. Oc1ccc(-c2ncc3ccc(-c4csc(CN5CCOCC5)c4)nc3n2)cc1
2. Oc1ccc(Nc2ncc3ncc(-c4ccc(O)cc4)cc3n2)cc1
3. Oc1ccc(Nc2ncc3ncc(-c4cccc(O)c4)cc3n2)cc1
4. COCOc1ccc(-c2ncc3ccc(-c4csc(CN5CCCCC5)c4)nc3n2)cc1

["> 268 °C", "> 268 °C", "> 268 °C", "> 268 °C"]

====

Would you mind telling me the reported IC50 of each entry?
# Tested on: fibroblast
# assay.name: Cytotoxicity on human cells, fibroblast
# Assay type: cell-based
# settings: exposed 24 h and 48 h, 0.1 to 25 μM
Answers are plain numbers, in µM.

Recorded IC50 for "OCCNc1nc(NCc2ccccc2)c2ncc(Nc3ncccn3)cc2n1" , please?
15

Please give IC50 for each item listed below.
1. Oc1ccc(-c2ncc3ncc(Nc4ccon4)cc3n2)cc1
2. COc1ccc(Nc2cnc3c(NCc4ccccc4)nc(NCCO)nc3c2)cc1OC
3. COc1ccc(-c2cnc3cnc(-c4ccc(O)cc4)nc3c2)cn1
4. COc1cccc(Nc2cnc3c(NCc4ccccc4)nc(NCCO)nc3c2)c1

1. 15
2. 5
3. 10
4. 5

====

# System: Caco
# assay.name: Cytotoxicity on human cells, Caco (colon)
# Type: cell-based
# settings: exposed 24 h and 48 h, 0.1 to 25 μM
# Description: […] Dosages on Human cells (Huh7, Caco, MDA-MB 231, HCT 116, PC3, NCl, Fibroblast) Cytotoxicity: This method is based on an automated imaging analysis. […] These cells were then exposed for 24 h and 48 h to increasing concentrations of the compounds of the invention, from 0.1 to 25 μM in a final volume of 80 μL of culture medium. The cells are then set with a 4% paraformaldehyde solution and the nuclei are colored with Hoechst 3342 and counted according to automated imaging quantification. […]
Please go through the items and note down their IC50.
Numbers only, in µM.

Please review the following examples before continuing.
Which IC50 value belongs to Oc1ccc(Nc2ncc3ncc(-c4ccccc4O)cc3n2)cc1 [Compound 60] ?
4

Okay, and Oc1ccc(-c2ncc3ncc(-c4ccccc4O)cc3n2)cc1 [Compound 24] ?
20

Then Oc1cccc(-c2cnc3cnc(-c4cccc(O)c4)nc3c2)c1 [Compound 21] ?
20

Input Oc1ccc(Nc2ncc3ncc(-c4cccc(O)c4)cc3n2)cc1 [Compound 61]
12

Consider next the molecule COc1ccc(Nc2cnc3c(NCc4ccccc4)nc(NCCO)nc3c2)cc1OC [Compound 85] in the same way.
4

How about this molecule: COc1ccc(Nc2cnc3cnc(-c4ccc(O)cc4)nc3c2)cc1 [Compound 51]
12

One more molecule: Oc1ccc(-c2cnc3cnc(-c4ccc(O)cc4)nc3c2)cc1 [Compound 20]
7

Please answer likewise for OCCNc1nc(NCc2ccccc2)c2ncc(Nc3ncccn3)cc2n1 [Compound 87]
8

Hi, could you look up IC50 for each item in my list?
1. Oc1ccc(Nc2ncc3ncc(-c4ccc(O)cc4)cc3n2)cc1 [Compound 62]
2. Oc1ccc(-c2ncc3ncc(Nc4ncccn4)cc3n2)cc1 [Compound 52]
3. Cc1ncccc1Nc1cnc2cnc(-c3ccc(O)cc3)nc2c1 [Compound 53]
4. OCCNc1nc(NCc2ccccc2)c2ncc(Nc3ccc4ncccc4c3)cc2n1 [Compound 90]
5. Oc1ccc(-c2ncc3ncc(-c4cccc(O)c4)cc3n2)cc1 [Compound 23]
6. OCCNc1nc(NCc2ccccc2)c2ncc(Nc3cnc4ccccc4c3)cc2n1 [Compound 89]
7. Oc1ccc(-c2ncc3ncc(Nc4ccon4)cc3n2)cc1 [Compound 48]

1. 15
2. 5
3. 15
4. 4
5. 4
6. 2
7. 20

Hello, I would appreciate it if you could give IC50 for each entry below.
1. COc1cccc(Nc2cnc3c(NCc4ccccc4)nc(NCCO)nc3c2)c1 [Compound 84]
2. COc1ccc(Nc2cnc3c(NCc4ccccc4)nc(NCCO)nc3c2)cc1 [Compound 83]
3. CC(=O)c1ccc(Nc2cnc3c(NCc4ccccc4)nc(NCCO)nc3c2)cc1 [Compound 86]

1: 4; 2: 8; 3: 3

====

# study.system: CDK5 (Homo sapiens, UniProt Q00535)
# Sequence (Q00535 whole entry): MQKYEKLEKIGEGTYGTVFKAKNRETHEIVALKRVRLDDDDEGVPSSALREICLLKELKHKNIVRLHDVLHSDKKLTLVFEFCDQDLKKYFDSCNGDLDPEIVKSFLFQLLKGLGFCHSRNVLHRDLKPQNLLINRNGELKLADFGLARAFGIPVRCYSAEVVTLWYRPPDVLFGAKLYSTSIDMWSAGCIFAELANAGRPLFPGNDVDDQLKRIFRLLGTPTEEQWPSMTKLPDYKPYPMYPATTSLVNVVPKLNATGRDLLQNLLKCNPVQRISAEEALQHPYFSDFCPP
# Sequence (Q15078 99-307 partner limits assumed): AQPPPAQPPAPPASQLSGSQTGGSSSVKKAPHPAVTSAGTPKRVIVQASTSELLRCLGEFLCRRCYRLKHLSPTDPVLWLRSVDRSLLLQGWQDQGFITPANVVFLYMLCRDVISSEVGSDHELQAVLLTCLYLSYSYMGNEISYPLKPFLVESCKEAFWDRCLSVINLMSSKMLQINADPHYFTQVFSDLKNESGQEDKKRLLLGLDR
# assay.name: CDK5 kinase inhibition (histone H1, [γ-33P] ATP, buffer C)
# settings: 15 μM ATP, 30° C., recombinant; read-out: IC50 Kinases CDK5
Consider the following molecules; for each one, report its IC50.
One number for each entry, in nM.

For the molecule Oc1ccc(Nc2ncc3ncc(-c4cccc(O)c4)cc3n2)cc1 [Compound 61] , what IC50 is on record?
710

Can you handle Oc1ccc(-c2ncc3ncc(-c4ccc(C(F)(F)F)cc4)cc3n2)cc1 [Compound 25] next?
970

Same for Oc1ccc(Nc2ncc3ncc(Cl)cc3n2)cc1 [Compound 59]
1100

Below: the item to evaluate.
What value of IC50 has been recorded for this entry: Oc1ccc(Nc2ncc3ncc(-c4ccc(O)cc4)cc3n2)cc1 [Compound 62]
840

====

# study.system: DYRK1A (Homo sapiens)
# assay.name: DYRK1A kinase inhibition (Woodtide substrate, buffer A)
# settings: 15 μM ATP, 30° C., recombinant GST fusion; read-out: IC50 Kinases DYRK1A
pIC50: −log10 of the molar value.
quantity.name: pIC50

Solved cases below.
May I ask what pIC50 has been recorded for "CC(=O)c1ccc(Nc2cnc3c(NCc4ccccc4)nc(NCCO)nc3c2)cc1" ?
< 5.00

Now the compound "CS(=O)(=O)c1ccc(-c2cnc3cnc(-c4ccc(O)cc4)nc3c2)cc1"
< 5.00

Please do the same for "Oc1ccc(Nc2ncc3ncc(-c4cccc(O)c4)cc3n2)cc1" as well.
< 5.00

Input "Oc1ccc(-c2ncc3ncc(-c4ccoc4)cc3n2)cc1"
< 5.00

Try this compound too: "Oc1ccc(-c2ncc3ncc(Nc4nc5ccccc5s4)cc3n2)cc1"
< 5.00

Field: pIC50. Fill in for each record below.
1. Cc1csc(Nc2cnc3cnc(-c4ccc(O)cc4)nc3c2)n1
2. Oc1ccc(-c2ncc3ncc(-c4ccncc4)cc3n2)cc1
3. Oc1ccc(-c2ncc3ncc(-c4cccc(O)c4)cc3n2)cc1
4. Oc1ccc(-c2ncc3ncc(Cl)cc3n2)cc1

< 5.00
< 5.00
5.62
4.80

Give me pIC50 for each of these compounds, listed below.
1. Oc1ccc(-c2ncc3ncc(-c4ccccc4O)cc3n2)cc1
2. Oc1ccc(-c2ncc3ncc(-c4cccs4)cc3n2)cc1
3. N#Cc1ccc(Nc2cnc3cnc(-c4ccc(O)cc4)nc3c2)nc1
4. COc1ccc(-c2cnc3cnc(-c4ccc(O)cc4)nc3c2)cn1

1. 5.57
2. < 5.00
3. < 5.00
4. < 5.00

====

Please go through the items and note down their pIC50.
# Test system: PC3
# assay.name: Cytotoxicity on human cells, PC3 (prostate)
# Assay type: cell-based
# settings: PC-3, human cells, exposed 24 h and 48 h, 0.1 to 25 μM
# Experimental: […] Dosages on Human cells (Huh7, Caco, MDA-MB 231, HCT 116, PC3, NCl, Fibroblast) Cytotoxicity: This method is based on an automated imaging analysis. […] These cells were then exposed for 24 h and 48 h to increasing concentrations of the compounds of the invention, from 0.1 to 25 μM in a final volume of 80 μL of culture medium. The cells are then set with a 4% paraformaldehyde solution and the nuclei are colored with Hoechst 3342 and counted according to automated imaging quantification. […]
One number for each entry, as −log10 of the molar value.

Recorded pIC50, per entry:
Entry "Oc1ccc(Nc2ncc3ncc(-c4cccc(O)c4)cc3n2)cc1" has what pIC50?
5.15

Ok, now "Oc1cccc(-c2cnc3cnc(-c4cccc(O)c4)nc3c2)c1"
4.60

# iterate: "Oc1ccc(Nc2ncc3ncc(-c4ccccc4O)cc3n2)cc1"
4.70

Consider now this further molecule.
I am curious: what pIC50 value has been reported for "Oc1ccc(-c2ncc3ncc(-c4cccc(O)c4)cc3n2)cc1" ?
5.05
